# Test system: Amaranthus palmeri (AMAPA)
# procedure-details: Postemergence herbicide evaluation, percent reduction in plant size vs untreated control, 21 days after treatment
# Format: in vivo, Amaranthus palmeri (Palmer amaranth)
# experimental-conditions: post-emergence, 504 h, AMAPA, rate 140 g ae/ha, postemergence, read-out: Control/Injury
Output class 1 for records whose pest or weed control at 140 g/ha is lower than 20%, class 0 for records at or above 20%.

Consider the following illustrative entries.
INSERT INTO assay_data (compound, label) VALUES
  ('COc1c(Cl)ccc(Cl)c1C(=O)O/N=C(\N)c1ccc2ccccc2c1', 'class 0'),
  ('CCc1nnc(OC(=O)c2c(Cl)ccc(Cl)c2OC)s1', 'class 1'),
  ('COc1c(Cl)ccc(Cl)c1C(=O)Oc1cc(C(F)(F)F)n(C)n1', 'class 0'),
  ('CCCC[C@H](CC)COC(=O)c1c(Cl)ccc(Cl)c1OC', 'class 1');

Input COCCONC(=O)c1c(Cl)ccc(Cl)c1OC ; condition: pest or weed control at 140 g/ha strictly below 20%. Does it hold? class 1

Field entry: C=CCONC(=O)c1c(Cl)ccc(Cl)c1OC class 1

Now consider COC(=O)C(C(=O)OC)C(=O)c1c(Cl)ccc(Cl)c1OC and answer again. class 1

Same question for COc1c(Cl)ccc(Cl)c1C(=O)NOC1CCCCO1 (stereo not drawn) please. class 1

Now consider COc1c(Cl)ccc(Cl)c1C(=O)Nc1ccnn1C and answer again. class 1

###

# System: Amaranthus palmeri (AMAPA)
# procedure-details: Postemergence herbicide evaluation, percent reduction in plant size vs untreated control, 21 days after treatment
# Format: in vivo, Amaranthus palmeri (Palmer amaranth)
# experimental-conditions: post-emergence, 504 h, AMAPA, rate 140 g ae/ha, postemergence, read-out: Control/Injury
quantity-kind: pest or weed control at 140 g/ha (%)
Give a bare numeral; the unit % is implied.

Check out these entries, answers already filled in.
INSERT INTO measurements (compound_structure_string, result_units, test_result) VALUES
  ('COc1c(Cl)ccc(Cl)c1C(=O)Oc1ncn(-c2ccccc2)n1', '%', 75),
  ('COc1c(Cl)ccc(Cl)c1C(=O)n1ncc2ccccc21', '%', 40),
  ('COc1c(Cl)ccc(Cl)c1C(=O)NNc1ccccc1', '%', 23),
  ('COc1c(Cl)ccc(Cl)c1C(=O)Oc1nc(-c2ccccc2)cs1', '%', 28);

Requested field: pest or weed control at 140 g/ha. Item: COc1c(Cl)ccc(Cl)c1C(=O)n1nc(C)cc1C 10

###

# Tested on: Amaranthus rudis (AMATA)
# procedure-details: Postemergence herbicide evaluation, percent reduction in plant size vs untreated control, 21 days after treatment
# Format: in vivo, Amaranthus rudis (tall water hemp)
# experimental-conditions: Amaranthus tuberculatus, post-emergence, 504 h, AMATA, rate 280 g ae/ha, postemergence; read-out: Control/Injury
quantity-kind: pest or weed control at 280 g/ha (%)
Just the number please, in %, no unit attached.

INSERT INTO results (compound_structure_string, test_target, test_result) VALUES
  ('COc1c(Cl)ccc(Cl)c1C(=O)O/N=C(\N)CCCCC/C(N)=N/OC(=O)c1c(Cl)ccc(Cl)c1OC', 'Amaranthus rudis (AMATA)', 63);

Turning now to a further compound:
Suppose we examine the compound COc1c(Cl)ccc(Cl)c1C(=O)N1CCOCC1 ; what pest or weed control at 280 g/ha value has been reported? 23

###

# System: Amaranthus rudis (AMATA)
# procedure-details: Postemergence herbicide evaluation, percent reduction in plant size vs untreated control, 21 days after treatment
# Assay type: in vivo, Amaranthus rudis (tall water hemp)
# experimental-conditions: Amaranthus tuberculatus, post-emergence, 504 h, AMATA, rate 280 g ae/ha, postemergence; read-out: Control/Injury
Form field: pest or weed control at 280 g/ha (one value per entry).
Please reply with the bare figure in % and do not write the unit itself.

Illustrative cases are given below, each with its answer.
INSERT INTO measurements (molecule, test_result) VALUES
  ('COc1c(Cl)ccc(Cl)c1C(=O)ON(Cc1ccccc1)Cc1ccccc1 [Compound A-72]', 74),
  ('COc1c(Cl)ccc(Cl)c1C(=O)N1CCCCO1 [Compound A-104]', 92),
  ('CCCNNC(=O)c1c(Cl)ccc(Cl)c1OC [Compound A-112]', 20),
  ('COc1c(Cl)ccc(Cl)c1C(=O)Nc1ccncc1 [Compound A-61]', 90),
  ('COc1c(Cl)ccc(Cl)c1C(=O)ON1CCCCC1 [Compound A-92]', 92);

API: value(readout= pest or weed control at 280 g/ha, system= Amaranthus rudis (AMATA), query= COc1c(Cl)ccc(Cl)c1C(=O)O/N=C(\C)c1cccnc1 [Compound A-47] ) 75

Please answer likewise for CCCCCCNC(=O)c1c(Cl)ccc(Cl)c1OC [Compound A-128] 8

What do you have for COc1c(Cl)ccc(Cl)c1C(=O)ON(C)C(=O)Nc1ccccc1 [Compound A-75] ? 85

What about COc1c(Cl)ccc(Cl)c1C(=O)Oc1ccc(Cl)cc1 [Compound A-76] ? 67

Would you kindly repeat that for COc1c(Cl)ccc(Cl)c1C(=O)ON(C)C(=O)c1ccccc1 [Compound A-71] ? 80

###

Measured log10 of Volatility accompanies every entry in the list below.
# procedure-details: Volatility of compounds measured by thermogravimetric analysis (TGA), rate of weight loss
# Type: physicochemical
# experimental-conditions: estimates of volatility
The common logarithm of Volatility in ng/min is what is listed.

Answered cases to consult:
INSERT INTO assay_data (compound, test_result) VALUES
  ('COc1c(Cl)ccc(Cl)c1C(=O)O/N=C(\N)c1ccc2ncccc2c1 [Compound A-25]', -1.68),
  ('COc1c(Cl)ccc(Cl)c1C(=O)O/N=C(\N)c1cccs1 [Compound A-36]', -0.38),
  ('COc1c(Cl)ccc(Cl)c1C(=O)O/N=C(\N)c1ccc(Cl)cc1Cl [Compound A-15]', -2.01),
  ('COc1c(Cl)ccc(Cl)c1C(=O)O/N=C(\N)c1ccco1 [Compound A-38]', -0.34),
  ('COc1c(Cl)ccc(Cl)c1C(=O)O/N=C(\N)c1ccccc1 [Compound A-49]', -1.10),
  ('COc1c(Cl)ccc(Cl)c1C(=O)O/N=C(\N)c1ccsc1 [Compound A-37]', -0.84),
  ('COc1c(Cl)ccc(Cl)c1C(=O)OCOC(=O)c1ccccc1 [Compound A-51]', -0.60),
  ('COc1c(Cl)ccc(Cl)c1C(=O)O/N=C(\N)c1ccc(Cl)c(Cl)c1 [Compound A-14]', -1.25);

We now examine a further compound.
Returns the measured log10 of Volatility for the input compound. Input: COc1c(Cl)ccc(Cl)c1C(=O)O/N=C(\C)c1ccccc1 [Compound A-46] -1.00

###

pest or weed control at 280 g/ha listing for selected compounds.
# Tested on: Kochia scoparia (KCHSC)
# procedure-details: Postemergence herbicide evaluation, percent reduction in plant size vs untreated control, 21 days after treatment
# Format: in vivo
# experimental-conditions: Bassia scoparia, post-emergence, 504 h, KCHSC; rate 280 g ae/ha; postemergence, percent reduction vs untreated, 21 days after treatment; read-out: Control/Injury
Reply numerically in %, unit not repeated.

INSERT INTO results (compound, quantity_kind, result_units, test_result) VALUES
  ('COc1c(Cl)ccc(Cl)c1C(=O)N(C)OC [Compound A-129]', 'pest or weed control at 280 g/ha', '%', 5),
  ('CCCC[C@H](CC)COC(=O)c1c(Cl)ccc(Cl)c1OC [Compound A-137]', 'pest or weed control at 280 g/ha', '%', 3),
  ('COc1c(Cl)ccc(Cl)c1C(=O)NOCc1ccccc1 [Compound A-98]', 'pest or weed control at 280 g/ha', '%', 0),
  ('COc1c(Cl)ccc(Cl)c1C(=O)n1oc2ccccc2c1=O [Compound A-130]', 'pest or weed control at 280 g/ha', '%', 45),
  ('COc1c(Cl)ccc(Cl)c1C(=O)OCc1cc(COC(=O)c2c(Cl)ccc(Cl)c2OC)cc(COC(=O)c2c(Cl)ccc(Cl)c2OC)c1 [Compound A-123]', 'pest or weed control at 280 g/ha', '%', 0);

Quick one: pest or weed control at 280 g/ha of COc1c(Cl)ccc(Cl)c1C(=O)NNc1nc2ccccc2o1 [Compound A-109] ? 3

Item: COc1c(Cl)ccc(Cl)c1C(=O)NNc1ccc([N+](=O)[O-])cc1 [Compound A-132] 15

And CCN(CC)C(=O)c1c(Cl)ccc(Cl)c1OC [Compound A-107] ? 0

Further, for COc1c(Cl)ccc(Cl)c1C(=O)Nc1ccon1 [Compound A-106] ? 3

Now try COc1c(Cl)ccc(Cl)c1C(=O)O/N=C(\N)CC/C(N)=N/OC(=O)c1c(Cl)ccc(Cl)c1OC [Compound A-140] . 98

Repeat for the following compound: COc1c(Cl)ccc(Cl)c1C(=O)O/N=C(\N)CCCCC/C(N)=N/OC(=O)c1c(Cl)ccc(Cl)c1OC [Compound A-146] 96

Similarly, CCc1nnc(OC(=O)c2c(Cl)ccc(Cl)c2OC)s1 [Compound A-119] ? 3

Would you kindly repeat that for CCCNNC(=O)c1c(Cl)ccc(Cl)c1OC [Compound A-112] ? 18

Field entry: COc1c(Cl)ccc(Cl)c1C(=O)NOc1ccc([N+](=O)[O-])cc1 [Compound A-97] 88

Entry to check: COc1c(Cl)ccc(Cl)c1C(=O)O/N=C(\N)c1ccc2ccccc2c1 [Compound A-138] 91

Also check COc1c(Cl)ccc(Cl)c1C(=O)Oc1noc2ccccc12 [Compound A-122] 93

Then this compound: COc1c(Cl)ccc(Cl)c1C(=O)NNc1ccccc1 [Compound A-131] 38

Further, for COc1c(Cl)ccc(Cl)c1C(=O)O/N=C(/C)N [Compound A-136] ? 94

Field entry: COc1c(Cl)ccc(Cl)c1C(=O)NNc1nc(C)cs1 [Compound A-108] 3

Field entry: COc1c(Cl)ccc(Cl)c1C(=O)O/N=C/c1cccc(/C=N/OC(=O)c2c(Cl)ccc(Cl)c2OC)c1 [Compound A-143] 88

For COc1c(Cl)ccc(Cl)c1C(=O)NN1CCOCC1 [Compound A-127] then? 5
